Procedure Text: Hemolytic activity in rabbit RBC assessed as induction of hemolysis
Format: cell-based, Oryctolagus cuniculus, Erythrocyte
Condition: red blood cells, read-out: HD50 (the source's name)
Outcome Measure: HC50 (µM)
Express your answer in µM, writing the number without its unit.

Compound	HC50 [µM]
C[C@@H]1O[C@@H](O[C@H]2[C@H](O[C@H]3CC[C@@]4(C)[C@@H](CC[C@]5(C)[C@@H]4CC=C4[C@@H]6CC(C)(C)CC[C@]6(C(=O)NCCN6CCCC6)CC[C@]45C)[C@]3(C)CO)OC[C@H](O)[C@@H]2O)[C@H](O)[C@H](O)[C@H]1O	104
C[C@@H]1O[C@@H](O[C@H]2[C@H](O[C@H]3CC[C@@]4(C)[C@@H](CC[C@]5(C)[C@@H]4CC=C4[C@@H]6CC(C)(C)CC[C@]6(C(=O)NC6CC6)CC[C@]45C)[C@]3(C)CO)OC[C@H](O)[C@@H]2O)[C@H](O)[C@H](O)[C@H]1O	127

We now examine a further compound.
Look at this compound and give its reported HC50. C[C@@H]1O[C@@H](O[C@H]2[C@H](O[C@H]3CC[C@@]4(C)[C@@H](CC[C@]5(C)[C@@H]4CC=C4[C@@H]6CC(C)(C)CC[C@]6(C(=O)O)CC[C@]45C)[C@]3(C)CO)OC[C@H](O[C@@H]3O[C@H](CO)[C@@H](O)[C@H](O)[C@H]3O)[C@@H]2O)[C@H](O)[C@H](O)[C@H]1O [HEDERACOLCHISIDE A]
6.3
